B1: Far upstream element-binding protein 1, residues 184 to 257; numbered along this chain, Q96AE4 (parent)
chain: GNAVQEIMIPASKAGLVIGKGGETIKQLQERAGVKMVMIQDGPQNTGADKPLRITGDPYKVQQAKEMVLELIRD

Variants of: B1
Experiment notes: abundance fitness (aPCA) (normalised: wild type 0, dead -1); higher = more abundant; growth selection in yeast, the domain comes from the species named
Assay setup: Homo sapiens
Short version: abundance fitness at least -0.01 is Fulfilled, less is Not fulfilled.

>>> group("K20A")
"Fulfilled"
>>> group("P58A")
"Not fulfilled"
>>> group("K60C")
"Fulfilled"
>>> group("K65N")
"Not fulfilled"
>>> group("Q63R")
"Not fulfilled"
>>> group("Q44G")
"Fulfilled"
>>> group("I72E")
"Not fulfilled"
>>> group("I54N")
"Not fulfilled"
>>> group("G21L")
"Not fulfilled"
>>> group("L69I")
"Not fulfilled"
>>> group("Y59H")
"Fulfilled"
>>> group("G33P")
"Not fulfilled"
>>> group("R73Q")
"Fulfilled"
>>> group("R31E")
"Fulfilled"
>>> group("Q27L")
"Not fulfilled"
>>> group("E66K")
"Fulfilled"
>>> group("T24L")
"Not fulfilled"
>>> group("T24N")
"Not fulfilled"
>>> group("T24V")
"Not fulfilled"
>>> group("K65I")
"Not fulfilled"
>>> group("K65S")
"Not fulfilled"
>>> group("G56A")
"Not fulfilled"

Measured values drawn from the Human Domainome abundance scans (Beltran et al. 2025) for this set.
